Entry source: patent US20250011410A1

Below, each of the binders is paired with its reported pKd value.
# Assay System: T1, canine NGF tagged at the C-terminus with the Flag tag (canine, UniProt A0A8I3PYI3 122-241)
# T1 construct: mature; Expressed with baculovirus technology; also called feline NGF (processed form identical)
# T1 sequence (A0A8I3PYI3 entry or part of it): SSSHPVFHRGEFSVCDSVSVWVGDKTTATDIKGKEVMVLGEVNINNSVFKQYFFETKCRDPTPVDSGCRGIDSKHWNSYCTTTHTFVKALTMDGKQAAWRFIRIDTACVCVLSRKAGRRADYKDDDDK
# Assay Text: SPR off-rate assay, Fab-SASA on BSA chip
pKd: −log10 of the molar value.
Quantity Measured: pKd

binder="AHF17608 (Fab, V domains shown, not shown: small tags and cut ends) VH: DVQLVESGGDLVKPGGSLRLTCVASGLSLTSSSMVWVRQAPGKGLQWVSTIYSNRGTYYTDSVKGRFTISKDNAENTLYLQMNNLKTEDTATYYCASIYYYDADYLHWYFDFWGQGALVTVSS VL: EIQMTQSPTSLSASVGDRVTITCRASEGIANNLSWYQQTPGKAPKLLIYATSVLHSGVPSRFSGSGSGTDFTLTISSLQPEDFATYYCQQGYKWPLTFGGGTKLEITR" experimental_value="≥ 11.36"
binder="AHF17601 (Fab, V domains shown, not shown: small tags and cut ends) VH: DVQLVESGGDLVKPGGSLRLTCVASGLSLTSSSMVWVRQAPGKGLQWVSTIYSNRGTYYTDSVKGRFTISKDNAENTLYLQMNNLKTEDTATYYCAQIYYYDADYLHWYFDEWGQGALVTVSS VL: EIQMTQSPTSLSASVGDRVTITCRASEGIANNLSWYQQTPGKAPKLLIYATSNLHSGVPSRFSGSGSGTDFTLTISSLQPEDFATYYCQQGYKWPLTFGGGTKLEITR" experimental_value="≥ 11.46"
binder="AHF17594 (Fab, V domains shown, not shown: small tags and cut ends) VH: DVQLVESGGDLVKPGGSLRLTCVASGLSLTSSSMVWVRQAPGKGLQWVSTIYSNGGTYYTDSVKGRFTISKDNAENTLYLQMNNLKTEDTATYYCASIYYYDADYLHWYFDFWGQGALVTVSS VL: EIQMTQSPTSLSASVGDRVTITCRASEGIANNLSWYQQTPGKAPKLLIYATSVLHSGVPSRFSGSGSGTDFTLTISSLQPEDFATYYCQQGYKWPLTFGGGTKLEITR" experimental_value=9.03
